# EXPERIMENT DESCRIPTION: in vitro
# Design: species or system CCD841, HEK293
# MEASUREMENT CONTEXT: human, hb2 cells, read-out: HB-2 Cells Viability (%)
REPORTED PROPERTY: viability at 48 h, 10 µM (%)
Give bare numbers, in %.

Record viability at 48 h, 10 µM per entry; entries follow.
1. C=CC(=O)NC1c2ccccc2CC12CCOCC2 (stereo not shown)
2. N#CSc1ccc(NC(=O)CCl)c(Cl)c1
3. O=C(CCl)N1CCCc2cc([N+](=O)[O-])ccc21

103
20.6
19.6

Record viability at 48 h, 10 µM per entry; entries follow.
1. CC(NC(=O)CCl)c1ccccc1Cl (stereo not shown)
2. O=C(CCl)N1CCN(S(=O)(=O)c2cccs2)CC1
3. Cl.O=C(CCl)N1CCN(Cc2ccc(Cl)cc2)CC1

70.8
8.9
8.2

====

# EXPERIMENT DESCRIPTION: in vitro
# Parameters: species or system HB2, CCD841
# MEASUREMENT CONTEXT: human, hek293 cells
For each record, check the reported viability at 48 h, 10 µM: if it is below 30% write Met, else write Not met.

Solved entries:
MOLECULE: CC(c1ccccc1)N(C)C(=O)CCl (centres unmarked) [PCM-0102478]
GROUP LABEL: Met
--
MOLECULE: CC(C)C(C#N)N1CCN(C(=O)CCl)CC1 (centres unmarked) [PCM-0102263]
GROUP LABEL: Met
--
MOLECULE: O=C(CCl)NC(=O)Cc1ccccc1 [PCM-0102902]
GROUP LABEL: Not met
--
MOLECULE: O=C(CCl)NC(=O)NC1CCCC1 [PCM-0103001]
GROUP LABEL: Not met
--
MOLECULE: O=C(CCl)NC(=O)NCC1COc2ccccc2O1 (centres unmarked) [PCM-0102092]
GROUP LABEL: Met

Dear colleague, could you confirm whether viability at 48 h, 10 µM of Cl.O=C(CCl)N1CCN(Cc2ccsc2)CC1 [PCM-0102739] falls below 30%? Thanks. Not met

Dear colleague, could you confirm whether viability at 48 h, 10 µM of Cl.O=C(CCl)N1CCN(c2cnccn2)CC1 [PCM-0102889] falls below 30%? Thanks. Not met

Dear colleague, could you confirm whether viability at 48 h, 10 µM of C=CC(=O)NC1(c2nnc3n2CCCC3)CCC1 [PCM-0102639] falls below 30%? Thanks. Not met

Dear colleague, could you confirm whether viability at 48 h, 10 µM of O=C(CCl)Nc1c(Cl)cc(Cl)cc1C(=O)O [PCM-0102576] falls below 30%? Thanks. Not met

Dear colleague, could you confirm whether viability at 48 h, 10 µM of C=CC(=O)NC1(C(N)=O)CCCOC1 (centres unmarked) [PCM-0102608] falls below 30%? Thanks. Not met

Dear colleague, could you confirm whether viability at 48 h, 10 µM of C=CC(=O)N1CCN(C(=O)C23CC4CC(CC(C4)C2)C3)CC1 [PCM-0102682] falls below 30%? Thanks. Not met

Dear colleague, could you confirm whether viability at 48 h, 10 µM of O=C(CCl)N1Cc2ccccc2C(c2ccccc2)C1 (centres unmarked) [PCM-0102432] falls below 30%? Thanks. Met

Dear colleague, could you confirm whether viability at 48 h, 10 µM of C=CC(=O)NC1(C(=O)N2CCN(C)CC2)CCCC1 [PCM-0103054] falls below 30%? Thanks. Not met

====

# EXPERIMENT DESCRIPTION: in vitro
# Design: species or system HB2, CCD841
# MEASUREMENT CONTEXT: human, hek293 cells
Consider the following molecules; for each one, report its viability at 48 h, 10 µM.
A complete answer gives the number followed by the unit.

Record viability at 48 h, 10 µM per entry; entries follow.
1. C=CC(=O)Nc1ccccc1F
2. O=C(CCl)Nc1cc(Cl)ccc1-n1cncn1
3. C=CC(=O)NC(=O)NCc1ccccc1
4. C=CC(=O)N1CC(c2nc(C)no2)C1
5. C=CC(=O)NC1CCCN(c2cc(C)nn2C)C1=O (stereo not drawn)
6. Cl.O=C(CCl)N1CCN(c2cccc(Cl)c2)CC1

["84%", "11.7%", "17.9%", "90.9%", "94.5%", "58.5%"]

====

# TARGET: PCAF (Homo sapiens)
# Construct: gene KAT2B
# Sequence (Q92831 whole entry): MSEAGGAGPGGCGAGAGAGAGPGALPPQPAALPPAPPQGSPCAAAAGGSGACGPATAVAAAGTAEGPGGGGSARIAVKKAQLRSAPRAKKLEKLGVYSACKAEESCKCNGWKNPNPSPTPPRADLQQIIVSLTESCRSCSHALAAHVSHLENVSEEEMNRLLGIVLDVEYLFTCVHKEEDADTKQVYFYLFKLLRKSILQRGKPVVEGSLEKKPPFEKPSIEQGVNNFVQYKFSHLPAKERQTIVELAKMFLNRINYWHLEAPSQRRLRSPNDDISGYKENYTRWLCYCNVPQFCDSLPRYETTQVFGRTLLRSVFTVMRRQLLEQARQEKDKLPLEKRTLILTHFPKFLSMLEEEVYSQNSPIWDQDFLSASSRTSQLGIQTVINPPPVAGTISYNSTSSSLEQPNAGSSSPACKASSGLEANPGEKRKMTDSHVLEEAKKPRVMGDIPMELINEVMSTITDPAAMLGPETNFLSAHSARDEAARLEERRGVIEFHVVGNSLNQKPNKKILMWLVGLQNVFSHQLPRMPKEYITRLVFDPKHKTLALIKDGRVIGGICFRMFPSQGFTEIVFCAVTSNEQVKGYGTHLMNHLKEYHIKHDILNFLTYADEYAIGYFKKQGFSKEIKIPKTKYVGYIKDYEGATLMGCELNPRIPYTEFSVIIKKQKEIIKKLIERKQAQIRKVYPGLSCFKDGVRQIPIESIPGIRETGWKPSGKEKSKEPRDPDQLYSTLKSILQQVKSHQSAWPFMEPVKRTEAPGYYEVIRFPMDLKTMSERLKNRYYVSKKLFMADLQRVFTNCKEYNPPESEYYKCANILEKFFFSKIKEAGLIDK
# Design: Intact protein LC/MS covalent labelling, fragments in pools of five, 200 uM each, 4 °C
# MEASUREMENT CONTEXT: 24 h, 4 °C, pool of five; 200 µM; covalent
REPORTED PROPERTY: PCAF
One number for each entry.

These recorded examples may help you get a feel for the data.
COMPOUND: C=CC(=O)Nc1ccc(OC)c(F)c1
TARGET: PCAF (Homo sapiens)
REPORTED PROPERTY: PCAF
REPORTED VALUE: 0
--
COMPOUND: O=C(CCl)Nc1ccc(F)cc1F
TARGET: PCAF (Homo sapiens)
REPORTED PROPERTY: PCAF
REPORTED VALUE: 0

Record PCAF per entry; entries follow.
1. O=C(CCl)Nc1c(Cl)cccc1Cl
2. C=CC(=O)N1CCC(S(=O)(=O)N2CCCC2)C1 (stereo not drawn)
3. O=C1CN(C(=O)CCl)C2(CCCCC2)C(=O)N1
4. Cc1sc(NC(=O)CCl)c(C#N)c1C

0.45
0
0
0

====

# EXPERIMENT DESCRIPTION: in vitro
# Design: species or system HB2, CCD841
# MEASUREMENT CONTEXT: human, hek293 cells
REPORTED PROPERTY: viability at 48 h, 10 µM (%)
Give bare numbers, in %.

Record viability at 48 h, 10 µM per entry; entries follow.
1. C=CC(=O)N1CCC(n2cccn2)CC1
2. Cc1ccc(CN(C)C(=O)CCl)o1
3. C=CC(=O)N1CCC(Cc2ccccn2)CC1

109
31.8
98.6

Record viability at 48 h, 10 µM per entry; entries follow.
1. Cc1ccc(NC(=O)CCl)cc1C
2. CC1CCc2c(sc(NC(=O)CCl)c2C#N)C1 (centres unmarked)
3. O=C(CCl)Nc1cc(C(F)(F)F)ccc1N1CCOCC1
4. CC(NC(=O)CCl)c1ccc2c(c1)OCO2 (centres unmarked)
5. O=C(CCl)N1CCN(S(=O)(=O)c2ccccc2Cl)CC1
6. C=CC(=O)N1CCCCC1C(=O)O (centres unmarked)
7. CC1CCCN(C(=O)CCl)C1 (centres unmarked)

1. 1.5
2. 43.4
3. 118
4. 78.2
5. 6
6. 95.6
7. 103

Look up viability at 48 h, 10 µM for this molecule: CC(C)c1cccc(NC(=O)CCl)c1 17.7

====

# TARGET: BSA (Bos taurus, UniProt P02769)
# Construct: gene ALB
# Sequence (P02769 whole entry): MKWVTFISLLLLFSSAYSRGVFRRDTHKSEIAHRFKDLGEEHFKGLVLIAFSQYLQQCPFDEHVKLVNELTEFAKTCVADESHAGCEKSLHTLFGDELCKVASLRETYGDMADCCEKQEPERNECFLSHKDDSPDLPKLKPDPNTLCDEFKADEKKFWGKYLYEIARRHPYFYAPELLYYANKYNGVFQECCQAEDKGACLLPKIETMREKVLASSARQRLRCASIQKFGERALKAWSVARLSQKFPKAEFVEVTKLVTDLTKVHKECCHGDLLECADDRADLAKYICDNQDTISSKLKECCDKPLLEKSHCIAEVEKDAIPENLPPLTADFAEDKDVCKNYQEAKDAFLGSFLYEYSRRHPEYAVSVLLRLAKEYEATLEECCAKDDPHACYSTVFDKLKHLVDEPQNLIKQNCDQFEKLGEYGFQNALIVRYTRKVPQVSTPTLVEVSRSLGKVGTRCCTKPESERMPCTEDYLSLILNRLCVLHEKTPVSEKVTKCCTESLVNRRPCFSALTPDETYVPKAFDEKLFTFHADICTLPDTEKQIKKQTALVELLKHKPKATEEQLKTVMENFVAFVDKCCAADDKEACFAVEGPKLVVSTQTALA
# Parameters: Intact protein LC/MS covalent labelling, fragments in pools of five, 200 uM each, 4 °C
# MEASUREMENT CONTEXT: 24 h, 4 °C, pool of five; 200 µM; covalent
REPORTED PROPERTY: BSA
Give bare numbers.

These recorded examples may help you get a feel for the data.
COMPOUND: C=CC(=O)NCc1cnc(C)s1
BSA: 0.24
--
COMPOUND: C=CC(=O)N1CCN(C2CCCN(C3CCOCC3)C2=O)CC1 (centres unmarked)
BSA: 0
--
COMPOUND: C=CC(=O)Nc1cc(F)ccc1C
BSA: 0

Record BSA per entry; entries follow.
1. C=CC(=O)NC1CCCN(c2cc(C)nn2C)C1=O (centres unmarked)
2. CC1CCCCC1N(C)C(=O)CCl (centres unmarked)

1. 0
2. 0

Record BSA per entry; entries follow.
1. NC(=O)c1c(NC(=O)CCl)sc2c1CCC2
2. N#Cc1c2c(n(-c3ccccc3)c1NC(=O)CCl)CCCC2
3. O=C(CCl)N(C1=CCCCC1)C1CC1
4. C=CC(=O)Nc1cccc(F)c1

1. 0
2. 0
3. 0
4. 0.19

Record BSA per entry; entries follow.
1. O=C(CCl)Nc1nc2ccc(F)cc2s1
2. Cc1csc(N(C(=O)CCl)c2ccccc2)n1

[0, 0]

====

Consider the following compounds; for each one, report its OTUB2.
# TARGET: OTUB2 (OTUB2A) (Homo sapiens, UniProt Q96DC9)
# Construct: full length residues 1-234, E. coli BL21(DE3)-R3, His tag removed by TEV, construct 27312 Da
# Sequence (Q96DC9 whole entry, the tested form may be a part): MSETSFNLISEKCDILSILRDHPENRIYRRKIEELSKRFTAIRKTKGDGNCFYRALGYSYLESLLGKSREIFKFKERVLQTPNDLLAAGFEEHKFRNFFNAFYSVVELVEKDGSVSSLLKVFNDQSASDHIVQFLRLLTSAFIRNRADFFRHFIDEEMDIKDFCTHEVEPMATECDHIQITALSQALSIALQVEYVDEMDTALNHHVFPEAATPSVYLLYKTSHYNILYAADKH
# Set-up: Intact protein LC/MS covalent labelling, fragments in pools of five, 200 uM each, 4 °C
# MEASUREMENT CONTEXT: 24 h, 4 °C, pool of five; 200 µM; covalent

These recorded examples may help you get a feel for the data.
COMPOUND: Cc1ccc(NC(=O)NC(=O)CCl)cc1C
REPORTED VALUE: 0

COMPOUND: O=C(CCl)NC(=O)c1ccc[nH]1
REPORTED VALUE: 0

COMPOUND: COc1ccc(NC(=O)CCl)cc1Cl
REPORTED VALUE: 0.24

Record OTUB2 per entry; entries follow.
1. C=CC(=O)N1CCC(c2nc3cccc(C)c3o2)CC1
2. Cc1cc(NC(=O)CCl)n(C(C)(C)C)n1
3. O=C(CCl)N(C1CCCC1)C1CC1
4. O=C(CCl)NC(=O)NC1CC1
5. O=C(CCl)Nc1cc(Cl)ccc1C(=O)O
6. O=C(CCl)NNC(=O)c1ccc([N+](=O)[O-])cc1
7. COC(=O)c1cc(NC(=O)CCl)cn1C

1: 0; 2: 0; 3: 0; 4: 0; 5: 0.07; 6: 0.21; 7: 0.33

Record OTUB2 per entry; entries follow.
1. O=C(CCl)NNC(=O)c1ccccc1
2. C#Cc1cccc(NC(=O)NC(=O)CCl)c1
3. C=CC(=O)N1CCC(NC(=O)c2ccncc2)CC1
4. Cl.O=C(CCl)N1CCN(Cc2ccc(Cl)s2)CC1

1. 0.2
2. 0.14
3. 0
4. 0.09

Data origin, for the record: paper PMC6556873
